Test system: NOMO1
Test: AUC of viability dose-response curve (% viability x log10 dose units); higher = less sensitive
Settings: RPMI 5 mM glucose + 10% dialyzed FBS; 48 h
QUANTITY_MEASURED: AUC of viability dose-response curve

Some molecules with known AUC of viability dose-response curve results, for comparison:
# MOLECULE, AUC of viability dose-response curve
records = [
    ("Cc1n[nH]c2ccc(-c3cncc(OC[C@@H](N)Cc4c[nH]c5ccccc45)c3)cc12", 280),
    ("CCc1nc(C(N)=O)c(Nc2ccc(N3CCC(N4CCN(C)CC4)CC3)c(OC)c2)nc1NC1CCOCC1", 363),
    ("Cc1cc(-c2ccc(CC(=O)Nc3ccc(-c4cccnc4)cc3)cc2)ccn1", 413),
    ("COc1ccc(-c2cc3c(C)nc(N)nc3n([C@H]3CC[C@H](OCCO)CC3)c2=O)cn1", 278),
    ("CC1(C)CCC(=C(\\C1)C2=CC=C(Cl)C=C2)/CN3CCN(CC3)C4=CC(=C(C=C4)C(=O)N[S+]([O-])(=O)C5=CC=C(NCC6CCOCC6)C(=C5)[N+]([O-])=O)OC7=CN=C8[NH]C=CC8=C7", 290),
]

GET /value?item= OC[C@H]1O[C@H](C[C@@H]1O)N2\C=C(\I)C(=O)NC2=O &field=AUC of viability dose-response curve returns 446

AUC of viability dose-response curve in this record for CN(C)Cc1cccc(N/C(=C2\C(=O)Nc3cc(C(=O)N(C)C)ccc32)c2ccccc2)c1 : 444

Reported AUC of viability dose-response curve of CC(C)(OCc1nn(Cc2ccccc2)c2ccccc12)C(=O)O : 467

In plain terms, O=C1Cc2cc(CCN3CCN(c4nsc5ccccc45)CC3)c(Cl)cc2N1 has a documented AUC of viability dose-response curve of 457

Looking up Cc1n[nH]c(C)c1Cc1sc2c(c1C(=O)N1C[C@H](O)CO1)c(=O)n(C)c(=O)n2CC(C)C , I see its AUC of viability dose-response curve listed as 468

Cited source for all entries: the supplement of paper PMC11451515
